Reference source for all entries: paper PMC5736220

Please respond with reported Kd for every item in the list.
- measured-on: T1, protocadherin-15 EC1+2, wild type, His-tagged (mouse, UniProt Q99PJ1 27-259)
- T1 construct: Protocadherin-15 (PCDH15), mouse, N-terminal fragment EC1+2; pET21a, NdeI/XhoI; predicted molecular weight 27.5 kDa; Held on the Ni-NTA chip by its His tag in SPR; also called pcdh15; pcdh15(WT); not shown: His6, C-terminal, kept
- method-summary: SPR; Biacore T100, Ni-NTA chip, 6xHis pcdh15 immobilised, tag-free cdh23 0.25 to 30 μM injected, 25°C, SEC buffer; global kinetic fit with EVILFIT (distribution model)
- condition-description: both partners purified
Give bare numbers, in µM.

>>> recorded_value("cadherin-23 EC1+2 (residues 1-205) S76V, tagless (domain or fragment, mouse, an Ala residue included between CDH23 EC2 and the intein tag to improve cleavage efficiency; Mutant of m8; That the added Ala stays on the C-terminus after cleavage is surmised; also called cdh23(S76V)) QVNRLPFFTNHFFDTYLLISEDTPVGSSVTQLLARDMDNDPLVFGVSGEEASRFFAVEPDTGVVWLRQPLDRETKVEFTVEFSVSDHQGVITRKVNIQVGDVNDNAPTFHNQPYSVRIPENTPVGTPIFIVNATDPDLGAGGSVLYSFQPPSPFFAIDSARGIVTVIQELDYEVTQAYQLTVNATDQDKTRPLSTLANLAIIITDA")
2.79
>>> recorded_value("cadherin-23 EC1+2 (residues 1-205) F7E, tagless (domain or fragment, mouse, an Ala residue included between CDH23 EC2 and the intein tag to improve cleavage efficiency; Mutant of m8; That the added Ala stays on the C-terminus after cleavage is surmised; also called cdh23(F7E)) QVNRLPEFTNHFFDTYLLISEDTPVGSSVTQLLARDMDNDPLVFGVSGEEASRFFAVEPDTGVVWLRQPLDRETKSEFTVEFSVSDHQGVITRKVNIQVGDVNDNAPTFHNQPYSVRIPENTPVGTPIFIVNATDPDLGAGGSVLYSFQPPSPFFAIDSARGIVTVIQELDYEVTQAYQLTVNATDQDKTRPLSTLANLAIIITDA")
3.25
>>> recorded_value("cadherin-23 EC1+2 (residues 1-205) T15E, tagless (domain or fragment, mouse, an Ala residue included between CDH23 EC2 and the intein tag to improve cleavage efficiency; Mutant of m8; That the added Ala stays on the C-terminus after cleavage is surmised; also called cdh23(T15E)) QVNRLPFFTNHFFDEYLLISEDTPVGSSVTQLLARDMDNDPLVFGVSGEEASRFFAVEPDTGVVWLRQPLDRETKSEFTVEFSVSDHQGVITRKVNIQVGDVNDNAPTFHNQPYSVRIPENTPVGTPIFIVNATDPDLGAGGSVLYSFQPPSPFFAIDSARGIVTVIQELDYEVTQAYQLTVNATDQDKTRPLSTLANLAIIITDA")
2.05

Prompt: Kindly indicate its recorded Kd. Item: cadherin-23 EC1+2 (residues 1-205), wild type, tagless (domain or fragment, mouse, an Ala residue included between CDH23 EC2 and the intein tag to improve cleavage efficiency; pTXB1, NdeI/SapI; That the added Ala stays on the C-terminus after thiol-induced cleavage, and that a start Met precedes residue 1, are surmised; also called tag-free cdh23; tagless cdh23) QVNRLPFFTNHFFDTYLLISEDTPVGSSVTQLLARDMDNDPLVFGVSGEEASRFFAVEPDTGVVWLRQPLDRETKSEFTVEFSVSDHQGVITRKVNIQVGDVNDNAPTFHNQPYSVRIPENTPVGTPIFIVNATDPDLGAGGSVLYSFQPPSPFFAIDSARGIVTVIQELDYEVTQAYQLTVNATDQDKTRPLSTLANLAIIITDA
Response: 3.72
